Each recorded value in this set is attributed to BigSolDB 2.1.

Conditions: in water, 328.15 K
MEASURED PROPERTY: solubility (mole fraction)

>>> value_reported("C[C@H]1[C@H](C)CC[C@]2(C(=O)O[C@@H]3O[C@H](CO[C@@H]4O[C@H](CO)[C@@H](O[C@@H]5O[C@@H](C)[C@H](O)[C@@H](O)[C@H]5O)[C@H](O)[C@H]4O)[C@@H](O)[C@H](O)[C@H]3O)CC[C@]3(C)C(=CC[C@@H]4[C@@]5(C)C[C@@H](O)[C@H](O)[C@@](C)(CO)[C@@H]5CC[C@]43C)[C@H]12")
"7.1e-06"

###

Conditions: in water, 323.15 K
MEASURED PROPERTY: solubility (mole fraction)

>>> value_reported("C[C@H]1[C@H](C)CC[C@]2(C(=O)O[C@@H]3O[C@H](CO[C@@H]4O[C@H](CO)[C@@H](O[C@@H]5O[C@@H](C)[C@H](O)[C@@H](O)[C@H]5O)[C@H](O)[C@H]4O)[C@@H](O)[C@H](O)[C@H]3O)CC[C@]3(C)C(=CC[C@@H]4[C@@]5(C)C[C@@H](O)[C@H](O)[C@@](C)(CO)[C@@H]5CC[C@]43C)[C@H]12")
"5.4e-06"
